Tested on: U-2932
Assay: growth inhibition by drug plus 177Lu-lilotomab satetraxetan (1 - RLU/untreated control) (fraction); higher = stronger inhibition
Settings: 10 nM; time (day): 6; 177Lu-lilotomab satetraxetan 1 ug/ml
Structures can show the parent of a compound that is named as a salt.
parameter: growth inhibition by drug plus 177Lu-lilotomab satetraxetan

1) O=C(O)C(=O)O.[NH-]C1CCCCC1[NH-].[Pt+2] (stereo not drawn) [Oxaliplatin (Eloxatin)]: 0.284
2) Nc1nc(F)nc2c1ncn2[C@@H]1O[C@H](CO)[C@@H](O)[C@@H]1O: 0.16
3) CC(C)[C@H](C(=O)Nc1ccc(C(=O)NO)cc1)c1ccccc1: 0.152
4) CCc1c2c(nc3ccc(OC(=O)N4CCC(N5CCCCC5)CC4)cc13)-c1cc3c(c(=O)n1C2)COC(=O)[C@]3(O)CC [Irinotecan HCl Trihydrate (Campto)]: 0.118
5) O=c1cc(N2CCOCC2)oc2c(-c3ccccc3)cccc12: 0.0726
6) COc1cc2nc(N3CCCN(C)CC3)nc(NC3CCN(Cc4ccccc4)CC3)c2cc1OC: 0.207
7) O=C(/C=C/c1cccnc1)NCCCCC1CCN(C(=O)c2ccccc2)CC1: 0.758
8) CNC(=O)c1cc(Oc2ccc(NC(=O)Nc3cc(C(C)(C)C)nn3-c3ccc4ncccc4c3)c(F)c2)ccn1 [DCC-2036 (Rebastinib)]: 0.132

* * *

Collected growth inhibition by drug alone values appear next to each entry.
Tested on: U-2932
Test: growth inhibition by drug alone (1 - RLU/untreated control) (fraction); higher = stronger inhibition
Settings: 10 nM; time (day): 4; 177Lu-lilotomab satetraxetan 0 ug/ml
Structures can show the parent of a compound that is named as a salt.
parameter: growth inhibition by drug alone

1. CN1C(=O)C(Cc2c[nH]c3ccccc23)NC1=S (configuration not stated) [Necrostatin-1]: -0.00946
2. NC(=O)c1ccc(I)c([N+](=O)[O-])c1 [Iniparib (BSI-201)]: -0.0395
3. CC(C)n1nc(-c2ccc3oc(N)nc3c2)c2c(N)ncnc21: 0.275
4. CC(C)C[C@@H](C(=O)N[C@H](C(=O)OC1CCCC1)c1ccccc1)[C@H](O)C(=O)NO [Tosedostat (CHR2797)]: 0.0228
5. Cc1cc(Nc2cc(N3CCN(C)CC3)nc(/C=C/c3ccccc3)n2)n[nH]1: -0.0558
6. CCN(CC)CCNC(=O)c1c(C)[nH]c(/C=C2\C(=O)Nc3ccc(F)cc32)c1C [Sunitinib Malate (Sutent)]: 0.0161
7. COc1cc2c(N3CCN(C(=O)Nc4ccc(OC(C)C)cc4)CC3)ncnc2cc1OCCCN1CCCCC1 [Tandutinib (MLN518)]: -0.0613
8. CC(C)n1c(/C=C/C(O)CC(O)CC(=O)O)c(-c2ccc(F)cc2)c2ccccc21 (configuration not stated) [Fluvastatin sodium (Lescol)]: -0.0165
9. c1ccc2c(CCNc3ccc(Nc4ccncc4)cc3)c[nH]c2c1: 0.057
10. O=c1[nH]cc(F)c(=O)[nH]1 [Adrucil (Fluorouracil)]: 0.0194
11. O=C(NCCS(=O)(=O)c1ccc(C(F)(F)F)cn1)c1ccc(Cl)cc1: -0.0169
12. Cc1nc(N)sc1-c1ccnc(Nc2ccc(N3CCOCC3)cc2)n1: -0.0087
13. CC(C)Oc1cc(Nc2nc(N[C@@H](C)c3ccc(F)cn3)ncc2Cl)n[nH]1: 0.0983
14. CCCC(CCC)C(=O)O [Valproic acid sodium salt (Sodium valproate)]: 0.0829
15. Cc1c(C(=O)Nc2ccc(N3C[C@@H](C)O[C@@H](C)C3)nc2)cccc1-c1ccc(OC(F)(F)F)cc1 [LDE225 (NVP-LDE225, Erismodegib)]: 0.0258
16. COc1cc2ncnc(Nc3cccc(Br)c3)c2cc1OC: 0.0294
17. CCC1=C[C@@H]2CN(C1)Cc1c([nH]c3ccccc13)[C@@](C(=O)OC)(c1cc3c(cc1OC)N(C)[C@H]1[C@@](O)(C(=O)OC)[C@H](OC(C)=O)[C@]4(CC)C=CCN5CC[C@]31[C@@H]54)C2 [Vinorelbine (Navelbine)]: 0.587

* * *

System: RIVA
Assay: growth inhibition by drug alone (1 - RLU/untreated control) (fraction); higher = stronger inhibition
Settings: 100 nM; time (day): 6; 177Lu-lilotomab satetraxetan 0 ug/ml
Collected growth inhibition by drug alone values appear next to each entry.
parameter: growth inhibition by drug alone

1) Cc1ccc([C@@H]2O[C@H](CO)[C@@H](O)[C@H](O)[C@H]2O)cc1Cc1ccc(-c2ccc(F)cc2)s1: -0.103
2) N#Cc1ccc(C(c2ccc(C#N)cc2)n2cncn2)cc1: -0.242
3) Cc1nc(Nc2ncc(C(=O)Nc3c(C)cccc3Cl)s2)cc(N2CCN(CCO)CC2)n1: 0.867
4) Cc1ccc(C(=O)Nc2ccc(CN3CCN(C)CC3)c(C(F)(F)F)c2)cc1C#Cc1cnc2cccnn12: 0.53
5) COc1cc(Nc2c(C#N)cnc3cc(OCCCN4CCN(C)CC4)c(OC)cc23)c(Cl)cc1Cl [Bosutinib (SKI-606)]: -0.598
6) CC(C)[C@H](C(=O)Nc1ccc(C(=O)NO)cc1)c1ccccc1: 0.884
7) CCc1cncnc1N1CCN(Cc2nc3ccc(C(F)(F)F)cc3[nH]2)CC1: -0.192
8) CC(C)(C#N)c1cc(Cn2cncn2)cc(C(C)(C)C#N)c1: -0.17
9) CCCS(=O)(=O)Nc1ccc(F)c(C(=O)c2c[nH]c3ncc(-c4ccc(Cl)cc4)cc23)c1F: -0.345

* * *

System: RIVA
Test: growth inhibition by drug plus 177Lu-lilotomab satetraxetan (1 - RLU/untreated control) (fraction); higher = stronger inhibition
Conditions: 10 nM; time (day): 3; 177Lu-lilotomab satetraxetan 0.5 ug/ml
Collected growth inhibition by drug plus 177Lu-lilotomab satetraxetan values appear next to each entry.
parameter: growth inhibition by drug plus 177Lu-lilotomab satetraxetan

1) Cc1cnc(Nc2ccc(OCCN3CCCC3)cc2)nc1Nc1cccc(S(=O)(=O)NC(C)(C)C)c1: 0.273
2) O=c1cc(N2CCOCC2)oc2c(-c3ccccc3)cccc12: 0.442
3) CC[C@]1(O)C[C@H]2CN(CCc3c([nH]c4ccccc34)[C@@](C(=O)OC)(c3cc4c(cc3OC)N(C=O)[C@H]3[C@@](O)(C(=O)OC)[C@H](OC(C)=O)[C@]5(CC)C=CCN6CC[C@]43[C@@H]65)C2)C1 [Vincristine]: 0.964
4) O=C(Nc1cccc(Cl)c1)Nc1ncc(CCNc2ncnc3ccsc23)s1: 0.463

* * *

Tested on: U-2932
Assay: growth inhibition by drug plus 177Lu-lilotomab satetraxetan (1 - RLU/untreated control) (fraction); higher = stronger inhibition
Details: 10 nM; time (day): 5; 177Lu-lilotomab satetraxetan 1 ug/ml
Threshold check on growth inhibition by drug plus 177Lu-lilotomab satetraxetan: at or above 0.09 gives 1.0, strictly below gives 0.0.

1) COc1ccc2c(c1)CCC1C2CCC2(C)C(NCCCCCCN3C(=O)C=CC3=O)CCC12 (stereo not drawn): 1.0
2) CCc1cncnc1N1CCN(Cc2nc3ccc(C(F)(F)F)cc3[nH]2)CC1: 0.0
3) C[C@]1(c2nc3c(C(N)=O)cccc3[nH]2)CCCN1 [ABT-888 (Veliparib)]: 0.0
4) Nc1nc(Nc2ccc(S(N)(=O)=O)cc2)nn1C(=O)c1c(F)cccc1F: 0.0
5) CCCCCOC(=O)Nc1nc(=O)n([C@@H]2O[C@H](C)[C@@H](O)[C@H]2O)cc1F [Capecitabine (Xeloda)]: 0.0
6) CNC(=O)c1cc(Oc2ccc(NC(=O)Nc3cc(C(C)(C)C)nn3-c3ccc4ncccc4c3)c(F)c2)ccn1 [DCC-2036 (Rebastinib)]: 1.0
7) COC(=O)c1ccc2c(C(=Nc3ccc(N(C)C(=O)CN4CCN(C)CC4)cc3)c3ccccc3)c(O)[nH]c2c1 [BIBF1120 (Vargatef)]: 0.0

* * *

Collected growth inhibition by drug plus 177Lu-lilotomab satetraxetan values appear next to each entry.
Test system: U-2932
Experiment: growth inhibition by drug plus 177Lu-lilotomab satetraxetan (1 - RLU/untreated control) (fraction); higher = stronger inhibition
Settings: 1000 nM; time (day): 6; 177Lu-lilotomab satetraxetan 1 ug/ml
parameter: growth inhibition by drug plus 177Lu-lilotomab satetraxetan

1) CCn1c(-c2nonc2N)nc2cnc(Oc3cccc(NC(=O)c4ccc(OCCN5CCOCC5)cc4)c3)cc21: 0.603
2) CCOc1cc2ncc(C#N)c(Nc3ccc(OCc4ccccn4)c(Cl)c3)c2cc1NC(=O)/C=C/CN(C)C: 0.0815
3) CCOc1cc(C(=O)Nc2ccc(Cl)c(-c3nc4ccccc4[nH]3)c2)cc(OCC)c1OCC: 0.362
4) COc1cc2c(cc1O)CC[C@@H]1[C@@H]2CC[C@]2(C)[C@@H](O)CC[C@@H]12: 0.814
5) C=CC(=O)N1CCC[C@@H](n2nc(-c3ccc(Oc4ccccc4)cc3)c3c(N)ncnc32)C1: 0.845
6) COc1c(C)cnc(Cn2cnc3c(Cl)nc(N)nc32)c1C: 0.989
7) CN(C)c1nc(N(C)C)nc(N(C)C)n1: 0.121
8) CN(Cc1cnc2nc(N)nc(N)c2n1)c1ccc(C(=O)N[C@@H](CCC(=O)O)C(=O)O)cc1 [Abitrexate (Methotrexate)]: 0.972
